tested on: RH7777; test: Cytotoxicity against rat RH7777 cells after 96 hrs by SRB assay; format: cell-based; conditions: RH7777, 96 h
pIC50: −log10 of the molar value.
Please note: 1 applies when pIC50 is 5 or greater, and -1 applies otherwise.

CCCCCCCCCCCCCCCCCCNC(=O)[C@@H]1CSC(c2cc(OC)c(OC)c(OC)c2)N1 (mixture of isomers) | -1
CCCCCCCCCCCCCCCCNC(=O)[C@@H]1CSC(c2ccc(NC(C)=O)cc2)N1 (mixture of isomers) | 1
CCCCCCCCCCCCCCNC(=O)[C@H]1CSC(c2cc(OC)c(OC)c(OC)c2)N1 (mixture of isomers) | 1
CCCCCCCCCCCCCCCCCCNC(=O)[C@@H]1CSC(c2ccccc2)N1 (mixture of isomers) | -1
CCCCCCCCCCCCCCNC(=O)[C@@H]1CSC(c2cc(OC)c(OC)c(OC)c2)N1 (mixture of isomers) | 1
CCCCCCCCCCCCCCCCNC(=O)[C@@H]1CSC(c2ccccc2OC)N1 (mixture of isomers) | -1
CCCCCCCCCCNC(=O)[C@@H]1CSC(c2cc(OC)c(OC)c(OC)c2)N1 (mixture of isomers) | 1
CC(=O)Nc1ccc(C2N[C@H](C(=O)NC34CC5CC(CC(C5)C3)C4)CS2)cc1 (mixture of isomers) | -1

Query block: Given the entry CCCCCCCCCCCCCCCCNC(=O)[C@@H]1CSC(c2ccc(NS(C)(=O)=O)cc2)N1 (mixture of isomers) , answer whether its pIC50 meets or surpasses 5.
Result block: -1

Query block: Confirm if pIC50 reported for the compound CCCCCCCCCCCCCCCCNC(=O)[C@@H]1CSC(c2cccc(OC)c2)N1 (mixture of isomers) is 5 or above.
Result block: 1

Query block: Please tell me: is the compound CCCCCCCCCCCCCCCCOC(=O)[C@@H]1CSC(c2ccc(NC(C)=O)cc2)N1 (mixture of isomers) at or over 5 in terms of pIC50?
Result block: -1

Query block: Hi, just wondering whether CC(=O)Nc1ccc(C2N[C@H](C(=O)Nc3ccc4cc5ccccc5cc4c3)CS2)cc1 (mixture of isomers) shows pIC50 of 5 or higher.
Result block: 1

Query block: Does pIC50 meet or surpass 5 for CCCCCCCCCCCCCCCCNC(=O)[C@@H]1CSC(c2ccc(NC(N)=O)cc2)N1 (mixture of isomers) ?
Result block: 1

Query block: Hi, just wondering whether CCCCCCCCNC(=O)[C@@H]1CSC(c2cc(OC)c(OC)c(OC)c2)N1 (mixture of isomers) shows pIC50 of 5 or higher.
Result block: -1

Query block: In plain terms: is recorded pIC50 at least 5 for CCCCCCCCCCCCCCCCNC(=O)[C@@H]1CSC(c2cccc(NC(C)=O)c2)N1 (mixture of isomers) ?
Result block: 1

Query block: Hello, I need to know if CCCCCCCCC#CCCCCCCCCCNC(=O)[C@@H]1CSC(c2ccc(NC(C)=O)cc2)N1 (mixture of isomers) has measured pIC50 not below 5. Thanks!
Result block: 1

Query block: Quick check, pIC50 >= 5? CCCCCCCCCCCCNC(=O)[C@@H]1CSC(c2cc(OC)c(OC)c(OC)c2)N1 (mixture of isomers)
Result block: 1

Query block: In plain terms: is recorded pIC50 at least 5 for CC(=O)Nc1ccc(C2N[C@H](C(=O)NC3C4CC5CC(C4)CC3C5)CS2)cc1 (mixture of isomers) ?
Result block: -1
